# System: human APOE RNA
# Test Summary: Activity in APOE C57BL/6NTac-Apoeem7250 knock-in mice, single ICV bolus, 8 weeks (Example 11)
# Assay type: in vivo
# Settings: cortex; single ICV bolus 300 μg; 8 weeks post treatment; normalized to mouse Ppia
Strand notation (5' to 3'): a small letter for the sugar, then the base; units joined by * are phosphorothioate-linked, units joined directly phosphodiester-linked; [ ] holds rarer units or linkages, { } end groups; capitals alone tell only the bases. [ms] = mesyl phosphoramidate linkage; e = 2'-O-(2-methoxyethyl) (MOE); [5mC] = 5-methylcytosine; d = 2'-deoxy (DNA)
Assay Metric: APOE RNA (% control) Cortex
Numeric only. Scale: % control

- Substance: "1693085: 6-10-4 MOE gapmer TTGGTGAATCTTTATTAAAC, linkages ssssszzzsssszzsssss (eT*eT*eG*eG*eT*eG[ms]dA[ms]dA[ms]dT*d[5mC]*dT*dT*dT[ms]dA[ms]dT*dT*eA*eA*eA*e[5mC]) [compound 1693085]"
  Assay Metric: "APOE RNA (% control) Cortex"
  Measurement: 86

Using the record for 1693049: 5-10-5 MOE gapmer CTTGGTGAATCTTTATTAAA, linkages ssssszzzzssssszssss (antisense e[5mC]*eT*eT*eG*eG*dT[ms]dG[ms]dA[ms]dA[ms]dT*d[5mC]*dT*dT*dT*dA[ms]eT*eT*eA*eA*eA) [compound 1693049] , report its APOE RNA (% control) Cortex.
101

FYI, the data here is from patent US20250353873A1.
